Could you please report measured growth inhibition for the items listed next?
# procedure.text: NCI Yeast Anticancer Drug Screen. Data for the sgs1 mgt1 strain (AID 161);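 also: 0% = growth of cultures given vehicle only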
# condition.notes: S. cerevisiae sgs1 mgt1 strain, at 5.0 µM (retest, dose inferred, filed as 0.5), stronger effect = higher value
About 79,000 compounds went through this panel and 15% of them were active in at least one assay; those are over-represented in the sample as a whole.
Answer in %, number only, no unit symbol.

Inquiry: Input COc1cccc(C(Cc2ccc(N3C(N)=NC(N)=NC3(C)C)cc2)C(=O)Nc2ccc(S(=O)(=O)F)cc2)c1 (stereo not drawn) , output reported growth inhibition.
Reply text: 1

Inquiry: Return growth inhibition for the following compound: CCC[CH2][Sn]([Cl])([CH2]Cl)[CH2]CCC
Reply text: 98

Inquiry: Identify measured growth inhibition corresponding to [Cl][Hg][CH2]CC1CC=CCC1 (stereo not drawn)
Reply text: 100

Inquiry: Read off the recorded growth inhibition for COc1cc(C=Nc2cc(Br)c(OC)c(Br)c2)ccc1N(CCCl)CCCl
Reply text: -1

Inquiry: Provide growth inhibition value for the following compound: [Cl][Hg].c1ccc([As]c2ccc(-c3ccccc3)cc2)cc1 (stereo not drawn)
Reply text: 100

Inquiry: Report growth inhibition for O=[N+]([O-])c1cc([N+](=O)[O-])c2cccnc2c1O
Reply text: -3

Inquiry: Write down growth inhibition measured for item C[n+]1c(/C=C/c2ccc(O)c3ncccc23)[se]c2ccccc21
Reply text: 24

Inquiry: Note down growth inhibition recorded for Nc1ccc2cc(Br)ccc2c1
Reply text: -10

###

# procedure.text: NCI Yeast Anticancer Drug Screen. Data for the bub3 strain (AID 167)
# condition.notes: S. cerevisiae bub3 mutant strain, at 50.0 µM (retest, dose inferred, filed as 5.0), stronger effect = higher value
This is part of a sample that, as a whole, favours compounds with a hit. Of some 79,000 tested, about 15% had one in any assay.
measurement.label: growth inhibition (%)
Note: unit % is implicit; provide only the numeric part.

Inquiry: Hello, please tell me recorded growth inhibition for this one: CC(=O)OC(C)(C)/C=C/C(=O)[C@](C)(O)[C@H]1[C@H](O)C[C@@]2(C)[C@@H]3CC=C4[C@@H](C[C@H](O)[C@H](O)C4(C)C)[C@]3(C)C(=O)C[C@]12C
Reply text: 99

Inquiry: Item CC(=O)NC1C(S[As](C)C)OC(COC(C)=O)C(OC(C)=O)C1OC(C)=O (configuration not stated) : provide growth inhibition
Reply text: 98

Inquiry: Determine from records and report growth inhibition for CN[C@H]1C[C@@H]2O[C@@](C)([C@H]1OC)n1c3ccccc3c3c4c(c5c6ccccc6n2c5c31)C(=O)NC4
Reply text: 98

Inquiry: Return value of growth inhibition for input [Au+].c1c[n-]cn1.c1ccc([PH+](c2ccccc2)c2ccccc2)cc1 , no commentary.
Reply text: 98

Inquiry: For c1ccc2c[n+](CCCCCCCCCC[n+]3ccc4ccccc4c3)ccc2c1 , write its growth inhibition.
Reply text: 99

Inquiry: Tell me its growth inhibition given COC12[C@@H]3N[C@@H]3CN1C1=C(C(=O)C(NCCSSCCNC3=C(C)C(=O)C4=C(C3=O)C(COC(N)=O)[C@]3(OC)C5N[C@@H]5CN43)=C(C)C1=O)[C@@H]2COC(N)=O (some centres not stated) as the entry.
Reply text: 52

Inquiry: Answer with the recorded growth inhibition of O=C1c2ccccc2[Se](=O)N1c1ccccc1 (configuration not stated) only.
Reply text: 99

Inquiry: Please indicate growth inhibition recorded for CCOC(=O)C1=C(C)NC(=O)NC1c1ccc(N(CCCl)CCCl)cc1Cl (configuration not stated)
Reply text: 97

Inquiry: Read the entry C[N+](C)(C)CC1CCCC(C[N+](C)(C)C)C1=O (configuration not stated) and write its reported growth inhibition.
Reply text: 41

Inquiry: Please list growth inhibition recorded for the molecule O=[N+]([O-])c1cc([As](Br)c2ccc(O)c([N+](=O)[O-])c2)ccc1O
Reply text: 99

Inquiry: Kindly indicate its recorded growth inhibition. Item: CCC(=O)C(CCN1CCC2(CCCc3ccccc32)CC1)(c1ccccc1)c1ccccc1
Reply text: 91

Inquiry: Input Oc1c(Cl)cc(Cl)cc1Cl , output reported growth inhibition.
Reply text: 90
